System tested: T1, human EphA6 (Homo sapiens, UniProt Q9UF33)
T1 construct: a protein of the extracellular region of each human Eph receptor fused with the SEAP protein and the His tag; made in house; host or cells: Expi293F cells (culture supernatant)
T1 sequence (Q9UF33 23-550 limits assumed): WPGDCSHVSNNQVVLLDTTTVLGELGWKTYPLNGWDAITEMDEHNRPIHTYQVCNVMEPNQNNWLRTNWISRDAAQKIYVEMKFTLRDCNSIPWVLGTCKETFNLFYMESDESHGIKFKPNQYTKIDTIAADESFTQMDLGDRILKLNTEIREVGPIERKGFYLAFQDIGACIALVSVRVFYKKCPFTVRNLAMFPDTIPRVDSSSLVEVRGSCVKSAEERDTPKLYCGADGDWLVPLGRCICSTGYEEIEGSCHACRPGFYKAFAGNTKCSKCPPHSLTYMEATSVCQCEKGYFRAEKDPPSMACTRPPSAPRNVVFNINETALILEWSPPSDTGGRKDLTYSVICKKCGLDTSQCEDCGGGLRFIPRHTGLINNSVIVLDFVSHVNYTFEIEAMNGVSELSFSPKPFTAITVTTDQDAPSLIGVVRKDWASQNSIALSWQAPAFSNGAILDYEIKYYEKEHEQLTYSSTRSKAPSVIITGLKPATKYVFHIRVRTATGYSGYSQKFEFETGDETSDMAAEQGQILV
Assay info: Selectivity ELISA of humanized antibodies for human Eph receptor
Assay type: binding
Conditions: coated protein 1 nM
Measured metric: hEphA6-SEAP-: absorbance at 450 nm, percentage with respect to hEphA4-SEAP-His as 100% (%)
Value expressed in %; do not type the unit.

Molecule	Quantitative result
153 (antibody, V domains shown, synthetic humanized antibody heavy chain variable region sequence; synthetic humanized antibody light chain variable region sequence) VH: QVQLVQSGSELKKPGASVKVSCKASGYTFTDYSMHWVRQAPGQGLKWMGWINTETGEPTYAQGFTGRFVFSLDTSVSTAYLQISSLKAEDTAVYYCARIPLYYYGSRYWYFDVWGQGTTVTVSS VL: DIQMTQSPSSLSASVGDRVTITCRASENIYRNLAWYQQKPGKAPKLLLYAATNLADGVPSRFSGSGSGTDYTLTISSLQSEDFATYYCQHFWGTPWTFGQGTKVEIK	8.7

# ---- query molecule ----
Q. Returns the measured hEphA6-SEAP-: absorbance at 450 nm, percentage with respect to hEphA4-SEAP-His as 100% for the input molecule. Input: 96 (antibody, V domains shown, constant regions without entry; synthetic humanized antibody light chain variable region sequence; synthetic humanized antibody heavy chain variable region sequence) VL: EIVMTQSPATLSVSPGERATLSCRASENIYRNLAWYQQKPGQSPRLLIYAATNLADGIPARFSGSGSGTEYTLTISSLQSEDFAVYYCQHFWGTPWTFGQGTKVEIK VH: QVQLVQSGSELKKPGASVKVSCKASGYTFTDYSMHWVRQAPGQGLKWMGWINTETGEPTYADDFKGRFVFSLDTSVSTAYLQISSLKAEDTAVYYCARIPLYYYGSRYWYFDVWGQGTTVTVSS
A. 9.8

Every entry's value here was drawn from patent US10428140B2.
